- Assay Info: SK-BR-3 cell growth inhibitors, pilot screen, 24 h, human (AID 572);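 further: compound exposure lasted between 18 and 24 h rather than exactly 24 h; 100% = carrier-treated control wells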
- Condition Set: SK-BR-3 viability, CellTiter-Glo luminescence, at 10 µM, stronger effect = lower value
Observation Type: viability (%)
Numbers only; they are read as %.

INSERT INTO results (compound, result_units, reported_result) VALUES
  ('CSc1c(CC(=O)NCCO)n(C)c2ccccc12', '%', 108);

[ask] Given the entry O=C1c2cccnc2C(O)N1Cc1ccc(F)cc1 (centres undefined) , report its measured viability.
[reply] 104

[ask] GET /values?readout=viability&item= CN(CC(=O)Nc1ccc(F)c(Cl)c1)S(=O)(=O)c1cccc2nsnc12
[reply] 99

[ask] # viability lookup, item COCCn1nnnc1C(c1ccccc1OC)N1CCc2ccccc2C1 (centres undefined)
[reply] 119

[ask] If you can, please state the reported viability value of CC1=Nn2c(nnc2-c2ccccc2)SC1 .
[reply] 96

[ask] viability lookup needed for O=C(Nc1ccccc1-c1ccccc1)NC1CCN(C(=O)N2CCOCC2)CC1 , thanks.
[reply] 108

[ask] Consider the compound Nc1cc(=O)[nH]c(SCC(=O)Nc2ccc(Br)cc2)n1 and give its measured viability.
[reply] 96

[ask] What does the data say about its viability? Entry: O=C(CN(Cc1ccc(F)cc1)C(=O)Cn1nnc2ccccc21)NCC1CCCO1 (centres undefined)
[reply] 110

[ask] What value of measured viability is listed for O=C(CSc1n[nH]c(-c2ccco2)n1)Nc1sc2c(c1C(=O)Nc1ccccc1)CCCC2 ?
[reply] 99.5

[ask] Requested read-out: viability. Entry: CCOC(=O)c1sc2cccc(F)c2c1N
[reply] 105

[ask] Any idea what its viability is? The compound is O=C(O)CSc1ccc2ccccc2n1
[reply] 95.5

[ask] Name the recorded viability for Cc1c(CNCc2cccs2)c(C(=O)O)c(C)n1Cc1ccccc1 .
[reply] 91

[ask] For the compound shown here, CC(=O)NC(C)C(=O)OCc1ccc(Cl)cc1Cl (centres undefined) , give the reported viability.
[reply] 66

[ask] Given the entry c1ccc(Cc2nn3c(Cn4cnc5ccccc54)nnc3s2)cc1 , report its measured viability.
[reply] 128
